Test system: MS2 coat protein
assay.info: apparent KD of MS2 coat protein; designed switch direction (-1 OFF switch, 1 ON switch): -1; higher = weaker reporter binding
conditions.used: input ligand: none
Consider the reported apparent KD of MS2 coat protein of an entry and match it to a band in one: < 30 nM; two: ≥ 30 nM and < 100 nM; three: ≥ 100 nM

CUGUACUGAGGAUAUACAUGAGGAUCACCCAUGUGCUCCAGCUAGGAAACUAGCAAAAGUAGAAGGCAGUACAG [Mat - Exclusion 3 - Eli Mod - D60] (Eterna round: R97, puzzle: Exclusion 3)
two
UUUUGGCAAGCGAGAUCCUACAUGAGGAUCACCCAUGUUGACCAUGGUUUCCAUGGUCAUUUUGCUCGUCUUGUGUG [jl TITIN mod 2] (Eterna round: R97, puzzle: Sensor, turn-off variant 1)
two
AAACCUCACAACCGUUAAAACAUGAGGAUCACCCAUGUGCCGUAACGGCGCAUGGUCGAGCUAGGCUCGUCCAUGCA [Zamacelaso] (Eterna round: R96, puzzle: Sensor v2, turn-off variant)
one
AAAACGUCAGGAUAUACAGAAGAGAUCACAAAAAAAAAAAAACAUGAGGAUCACCCAUGUAGAAGGGACAAAAA [Ex2 Malc#2] (Eterna round: R96, puzzle: Exclusion 2)
three
UUUUAACAAGCGAGAUCCUACAUGAGGAUCACCCAUGUAUGUCAUGGUUUCCAUGGUCUUUUUGCUCGUCUUGUGUG [jl TITIN mod 7] (Eterna round: R97, puzzle: Sensor, turn-off variant 1)
two
UAGUGUUACACAGGAUAUCGCCUCUUAUUACAUGAGGAUCACCCAUGUUUAGUUAGUUACAUGUACGAGAAGGGUGUUGUAGUU [JR_ExcNG2_Sub039] (Eterna round: R96, puzzle: Exclusion NG 2)
three

Hi there! Could you help me figure out the category for GAGUUAACAUGAGGAAUAUACAUGAGGAUCACCCAUGUUAACAAAUUUUUUGCUCGUCUUAUAACAACAAUUAACUC [Alarm 4 - Jieux - Sensor, turn-off variant 1] (Eterna round: R97, puzzle: Sensor, turn-off variant 1) please?
three

Hi there! Could you help me figure out the category for GCAGGCUUUUGCUCGCCUUACAUGAGGAUCACCCAUGUGGGCCCGGGCCCGGGCCCGCCGGGCCCGGGCCCGGGCCC (Eterna round: R97, puzzle: Sensor, turn-off variant 1) please?
two

Hi there! Could you help me figure out the category for GAAUAGUGAGGAUAUACUUGCAGUGUACCUCGGGUGAUCUCACUUGAGGAUCACCCAAGUAGAAGGCGCGAGGG [EX2 #22] (Eterna round: R97, puzzle: Exclusion 2) please?
one

Cited source: the supplement of paper PMC9170038
